Tested on: Primary gingival keratinocytes
property name: CC50 (µM)
One number for each entry, in µM.

For orientation, consider the following solved cases.
Incoming: Bench note: what CC50 did `CCCCCOC(=O)Nc1nc(=O)n([C@@H]2O[C@H](C)[C@@H](O)[C@H]2O)cc1F` show?
Outgoing: 103

Incoming: Bench note: what CC50 did `O=C1[O][Pt]2([NH][C@@H]3CCCC[C@H]3[NH]2)[O]C1=O` show?
Outgoing: 46

Let's switch to this compound now.
Incoming: Bench note: what CC50 did `Nc1ncn([C@@H]2O[C@H](CO)[C@@H](O)[C@H]2O)c(=O)n1` show?
Outgoing: 1.8
